assay: AGP1-GFP expression modulators, hit retest, confirmation, cell-based, flow cytometry, S. cerevisiae, cherry picks (AID 2273);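 further: median GFP channel fluorescence over the whole cell population gate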; details: S. cerevisiae AGP1-GFP strain, 3 h, at 10 µM
measured.quantity: GFP response, % of DMSO (%)
The reply should contain only the number, in %.

// query GFP response, % of DMSO value for entry O=C(NOC(=O)c1ccccc1)c1ccccc1
88.2

Try the molecule O=C(CSc1nnc(-c2ccccn2)n1Cc1ccccc1)N1CCOCC1
101

Next record, please: O=C(Nc1cccc(O)c1)c1ccc(Br)cc1
103

How about COc1cccc2c1Oc1ncccc1N(C(=O)CCC(=O)NCc1ccc(F)cc1)C2 ?
96.6

What do you get for Cc1nc2c(-c3ccc(F)cc3)cnn2c(N)c1-c1ccccc1 ?
96.7

One more molecule: CCOc1cccc(C(=O)Nc2ccc(NC(=O)c3cc4ccccc4o3)c(OC)c2)c1
94.8

Lookup Cc1nnc(NC(=O)c2nc(S(=O)(=O)Cc3ccccc3C)ncc2Cl)s1
98.2

Same for CCn1cc(/C=C/c2cc[n+](C)cc2)c2ccccc21
108

Repeat with CCOc1cc(-c2nc3cc(C)ccn3c2NCC2CCCO2)ccc1O (stereo unspecified)
97.9

Same lookup for COc1ccc(S(=O)(=O)N2Cc3ccccc3CC2C(=O)O)cc1OC (stereo unspecified) , please.
102

Entry to check: Cc1cccc(C(=O)NNC(=S)NC(=O)c2ccccc2)c1
102

* * *

experiment: inhibitors of fungal efflux pumps CDR1, CDR2, MDR1, pilot screen, validation compound set, multiplex, phenotypic (AID 588506);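 further: Nile Red retained in cells so higher fluorescence means more efflux inhibition; 0 = negative control wells and 1 = enniatin B 25 µM full block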; conditions: S. cerevisiae pump-expressing triplex, Nile Red efflux flow cytometry; at 10 µM; the pumps come from Candida albicans
Active and inactive are the calls of the source.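 Rule for the calls: active = efflux inhibition above 0.42, the validation set average plus 4 SD; inconclusive = no clear call, values can overlap the other calls; inactive = the rest.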
Please reply with one of these outcomes: True (active), False (inactive)

What is the recorded call for this compound in the test? CC1(C(=O)O)CCC(C(=O)NC2CCCCCC2)C1(C)C (stereo not given)
False

// same read-out, input: CC(C)(C)NCC(O)c1cc(O)cc(O)c1 (stereo not given)
False

Next: C/C=C/Cn1c(SC)nc2c1c(=O)[nH]c(=O)n2C
True

Same lookup for O=C(NCCN1CCCCC1)c1c(O)c2ccccc2[nH]c1=O , please.
True

And what about the compound COc1cc2c(cc1O)CCN(C(=O)c1ccco1)C2C (stereo not given) ?
False

Note, next up: COc1cccc(OC2OC3COC(C)(C)OC3C(O)C2NC(C)=O)c1 (stereo not given)
False

Now the compound CC(C)Cc1cc(C(=O)N2CCC(N3CCC(C(=O)N4CCCC4)CC3)CC2)n[nH]1
False

Now try O=C(CCCC(=O)OCC1CCCO1)OCC1CCCO1 (stereo not given) .
False

Thanks! And CCN(CC)C(=S)SSC(=S)N(CC)CC ?
False

Please do the same for O=C(Nc1ccccc1)OCC1CCCN2CCCCC12 (stereo not given) as well.
False

Input N/C(=N\OS(=O)(=O)c1ccc2ccccc2c1)c1cccnc1
False

Try C[C@]12CCC(=O)C[C@@H]1CC[C@@H]1[C@@H]2CC[C@]2(C)C=CC[C@@H]12 next.
False

What do you get for Cc1[nH]c2ccccc2c1C(=O)CN1CCCC1 ?
False

Could you do the same for CCOCc1cc(C)[nH]c(=O)c1C#N , please?
False

Another compound to look at: CCOC(=O)C1=C(N)Oc2c(oc(CO)cc2=O)C1c1ccc(F)c(F)c1 (stereo not given)
False

Entry to check: c1ccc2c3c(c(CN4CCCCC4)cc2c1)COC3
False

Please give the result for O=P(c1ccccc1)(c1ccccc1)c1nc(-c2ccc(Cl)cc2)oc1N1CCOCC1 too.
True

Would you mind doing COc1ccc(CCN=C(N)C(C)c2ccccc2)cc1OC (stereo not given) as well?
False

Likewise for COC(=O)c1cc(OC)c(OC)cc1NC(=O)Nc1ccc(OC)cc1OC ?
False

Another compound to look at: Cn1c2ccc(CC(=O)O)cc2c2cc(CC(=O)O)ccc21
False

Also check CC(=O)Nc1nc(CCC(C)C)cc2c1c(=O)oc1ccccc12
False

Can you handle O=C(O)c1cccnc1 next?
False

Follow-up item: Cc1ccc2[nH]c3c(c2c1)CN(C(=O)CN1CCSCC1)CC3
False

Consider next the compound O=c1oc2c(CN3CCN(CCO)CC3)c(O)ccc2cc1-c1ccccn1 in the same way.
False

Follow-up entry: Clc1ccc(OCCCN2CCCCC2)c(Br)c1
False

* * *

assay: RPL19A-GFP modulators, yeast TOR pathway, confirmation, cell-based, S. cerevisiae, flow cytometry, cherry picks, mother/daughter gates (AID 2270); settings: S. cerevisiae RPL19A-GFP strain, 3 h, measured here: mother cell gate, at 10 µM, stronger effect = lower value, 100 = same GFP as DMSO wells
Would you mind telling me the reported GFP response vs DMSO of each entry?
Output spec: scalar in %, unitless text.

So what's the measured GFP response vs DMSO for this one? COc1cc(NC(=O)c2ccc(Br)cc2)ccc1NC(=O)c1cc2ccccc2o1
100

One more molecule: COc1ccc(-c2ccc(SCC(=O)N3c4ccccc4CC3C)nn2)cc1OC (configuration not stated)
99.3

Request: C=CCn1c(=O)c(C(=O)NCCc2ccccc2)c(O)c2ccccc21
100

Please do the same for O=C(/C=C/c1cc(Br)ccc1O)c1ccco1 as well.
99

// next record Cc1cccn2c(=O)c(/C=C(\C#N)C(=O)NCc3ccco3)c(N3CCCCCC3)nc12
97.2

What would you report for CCCCCCCCC/C(=N\O)c1ccccn1 ?
82.6

Now consider O=C(Oc1oc(-c2ccco2)nc1C=Nc1ccccc1)c1ccoc1 and answer again.
96.9

Here is the next molecule: Oc1c(Br)cc(Br)cc1C=Nc1cccc2ncccc12
98.6

Also check Cc1cc(N2CCCCC2)n2nc(C)c(-c3ccccc3)c2n1
100

Note, next up: COc1cc(NC(C)=O)ccc1NC(=O)c1cc2ccccc2o1
98.2

Same question, COC(=O)c1ccc(N2C(=O)CC(SCCN)C2=O)cc1 (configuration not stated) this time
98.4

Try the molecule O=C(O)c1ccn2c(C(=O)c3ccccc3)c(-c3ccccc3)cc2c1
95.4

Another molecule to check: Cc1ccc(SC(=O)c2c(C)noc2-c2cc(C)on2)cc1
104

Now try COc1ccccc1NC1=C(Cl)C(=O)N(c2ccccc2)C1=O .
103

And then O=C(c1ccccc1)c1ccccc1N1C(=O)C=CC1=O , what is it?
81.2

# iterate: Cc1c(NC(=O)/C(C#N)=C/c2c(N3CCCCC3)nc3ccccn3c2=O)c(=O)n(-c2ccccc2)n1C
96.6

Now consider Cc1cccc(NC(=O)c2ccc([N+](=O)[O-])o2)c1 and answer again.
101

Please answer likewise for CCc1nnc(NC(=O)c2nc(S(=O)(=O)Cc3ccc(C)cc3)ncc2Cl)s1
98.6

Then Cc1ccc(N(C(=O)CCCC(=O)Nc2ccccn2)C(C(=O)NC2CCCC2)c2ccc(O)cc2)cc1C (configuration not stated) ?
99.8

Ok, now COc1ccc(C2CC(c3ccccc3)=NN2S(=O)(=O)c2ccccc2)cc1 (configuration not stated)
101

Another molecule: COc1ccc(OC)c(CNC(=O)CCC(=O)N2Cc3cccc(OC)c3Oc3ncccc32)c1
101

One more molecule: Cc1ccc(NC(=S)NCC23C=CC(O2)C2C(=O)N(c4ccc(C)cc4)C(=O)C23)cc1 (configuration not stated)
102

* * *

Kindly supply the reported GFP response vs DMSO values for the records listed here.
test: RPL19A-GFP modulators, yeast TOR pathway, confirmation, cell-based, S. cerevisiae, flow cytometry, cherry picks, mother/daughter gates (AID 2270); conditions: S. cerevisiae RPL19A-GFP strain, 3 h, measured here: mother cell gate, at 10 µM, stronger effect = lower value, 100 = same GFP as DMSO wells
Numbers only here, please. The scale is %.

Which GFP response vs DMSO is reported for this compound? Oc1ccc(COCc2ccccc2)c2cccnc12
93.8

Next record, please: O=C(N/N=C/c1c(Cl)cccc1Cl)c1cccc(F)c1
94

Next entry: COc1cc(N2C(=O)C=CC2=O)c(OC)cc1Cl
75

Then Cc1ccc(-c2noc(CCC(=O)Nc3ccccc3C)n2)cc1 ?
96.5

Try this compound next: COc1cc(/C=C/C(=O)c2c(O)cc(C)oc2=O)cc(OC)c1O
96.8

What do we get for COC(CNC(=O)c1ccc2c3c(onc13)-c1ccccc1C2=O)OC ?
95.8

Next entry: O=C1Nc2ccccc2/C1=C\C(=O)c1ccccc1
91.9

Now the same for COc1ccc(-c2noc(-c3cccc(Cl)c3)n2)cc1OC
97.6

Cc1ccc(CCN2CC(C(=O)NCCCN(C)Cc3ccccc3)CC2=O)cc1 (configuration not stated) , same question.
98

Here is the next compound: Cc1cccc(Cn2cc(/C=C/[N+](=O)[O-])c3ccccc32)c1
98

Also need O=C(O)CCCn1nc(-c2ccccc2)c2ccccc21 , thanks.
100

Same question for Cc1ccc(Nc2c(-c3ccccn3)nc3ccc(C)cn23)cc1 please.
98.6
